- Tested on: PPARg:RXRa 90nM:30nM, anti-RXR (NR concentration 90 nM, RXRa partner concentration 30 nM)
- test-summary: PBM binding z-score (relative to random genomic background probes); higher = stronger binding; sequences stand for … in GC…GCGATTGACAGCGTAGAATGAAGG
observable: PBM binding z-score

- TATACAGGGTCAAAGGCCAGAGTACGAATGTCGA: 7.93
- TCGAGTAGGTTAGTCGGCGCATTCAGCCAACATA: 0.562
- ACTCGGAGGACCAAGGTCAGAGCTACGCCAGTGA: 0.773
- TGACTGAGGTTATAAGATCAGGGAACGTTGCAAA: 0.783
- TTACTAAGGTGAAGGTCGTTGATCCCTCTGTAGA: 7.51
- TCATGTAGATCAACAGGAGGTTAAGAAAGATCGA: 1.97
- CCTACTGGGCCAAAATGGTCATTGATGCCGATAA: 0.804
- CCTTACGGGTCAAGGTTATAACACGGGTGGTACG: 3.94
- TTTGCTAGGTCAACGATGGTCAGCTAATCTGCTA: 2.86
- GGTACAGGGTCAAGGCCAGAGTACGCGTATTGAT: 4.07
- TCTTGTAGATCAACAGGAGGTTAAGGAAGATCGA: 1.68
- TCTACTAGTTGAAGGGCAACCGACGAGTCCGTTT: 2.48

====

- Tested on: LXRa:RXRa (NR concentration 270 nM, RXRa partner concentration 90 nM)
- test-summary: PBM binding z-score (relative to random genomic background probes); higher = stronger binding; sequences stand for … in GC…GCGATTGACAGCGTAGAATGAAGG
observable: PBM binding z-score

• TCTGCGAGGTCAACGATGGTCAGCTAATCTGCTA = 5.84
• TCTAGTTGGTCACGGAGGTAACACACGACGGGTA = 0.13
• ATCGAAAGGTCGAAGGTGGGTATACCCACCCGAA = 3.18
• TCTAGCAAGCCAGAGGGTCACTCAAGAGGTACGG = 0.684
• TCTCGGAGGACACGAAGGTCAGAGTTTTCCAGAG = 0.932
• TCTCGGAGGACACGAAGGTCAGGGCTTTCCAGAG = 1.29
• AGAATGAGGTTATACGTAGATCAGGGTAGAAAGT = 1.96
• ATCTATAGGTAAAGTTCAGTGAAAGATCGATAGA = 1.7
• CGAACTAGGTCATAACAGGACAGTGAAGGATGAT = 4.15
• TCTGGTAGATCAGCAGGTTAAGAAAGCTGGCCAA = -0.0843
• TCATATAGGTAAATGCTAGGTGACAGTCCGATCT = 0.626
• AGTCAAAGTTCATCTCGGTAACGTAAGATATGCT = 6.1
• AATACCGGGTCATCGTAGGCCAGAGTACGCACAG = 5.51
• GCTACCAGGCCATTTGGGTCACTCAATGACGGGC = 0.0663
• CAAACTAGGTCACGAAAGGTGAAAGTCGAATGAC = 5.63
• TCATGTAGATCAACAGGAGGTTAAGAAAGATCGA = 1.12
• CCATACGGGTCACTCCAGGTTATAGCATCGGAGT = 7.37
• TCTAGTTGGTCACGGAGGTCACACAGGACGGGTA = 3.54
• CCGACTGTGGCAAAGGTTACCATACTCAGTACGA = 1.38
• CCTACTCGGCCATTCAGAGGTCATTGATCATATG = 4.79
• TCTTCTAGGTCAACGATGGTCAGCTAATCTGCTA = 3.57
• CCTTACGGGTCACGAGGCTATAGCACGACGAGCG = 3.97
• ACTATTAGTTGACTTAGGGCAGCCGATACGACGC = -0.0603
• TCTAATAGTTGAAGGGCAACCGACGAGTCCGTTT = 0.943
• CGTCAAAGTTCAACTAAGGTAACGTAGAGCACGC = 5.95
• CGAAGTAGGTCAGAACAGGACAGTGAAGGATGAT = 1.2
• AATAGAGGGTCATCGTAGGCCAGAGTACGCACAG = 6.19
• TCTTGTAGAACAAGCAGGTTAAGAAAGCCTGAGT = -0.117
• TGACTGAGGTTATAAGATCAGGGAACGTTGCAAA = 1.14
• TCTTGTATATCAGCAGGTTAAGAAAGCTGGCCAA = 0.883
• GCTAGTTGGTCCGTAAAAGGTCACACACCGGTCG = 4.48
• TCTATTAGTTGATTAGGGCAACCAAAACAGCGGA = 0.673
• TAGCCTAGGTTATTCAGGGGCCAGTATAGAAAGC = 1.27
• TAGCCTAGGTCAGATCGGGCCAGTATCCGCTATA = 1.05
• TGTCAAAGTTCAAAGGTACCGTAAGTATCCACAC = 6.28
• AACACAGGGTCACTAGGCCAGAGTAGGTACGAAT = 4.48
• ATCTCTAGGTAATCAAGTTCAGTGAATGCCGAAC = 1.01
• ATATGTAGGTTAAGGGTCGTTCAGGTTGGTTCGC = 2.85
• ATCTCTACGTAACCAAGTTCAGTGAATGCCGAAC = 0.0264
• GCGACTGGGGCAAAGCAGGTTACTATAAGGTTGG = 0.31
• TCTAGGAGGACACGAAAGGTCAGAGCTCGACATC = 3.77
• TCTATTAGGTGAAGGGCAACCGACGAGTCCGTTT = 1.07
• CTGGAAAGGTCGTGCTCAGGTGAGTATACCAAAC = 3.35
• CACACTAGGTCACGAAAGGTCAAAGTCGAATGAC = 8.25
• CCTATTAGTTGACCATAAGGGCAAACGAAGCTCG = 0.336
• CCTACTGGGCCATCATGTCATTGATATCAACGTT = -0.142
• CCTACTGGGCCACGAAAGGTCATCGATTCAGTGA = 5.24
• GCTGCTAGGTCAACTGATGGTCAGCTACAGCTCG = 2.91
• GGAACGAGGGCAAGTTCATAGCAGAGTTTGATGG = 1.97
• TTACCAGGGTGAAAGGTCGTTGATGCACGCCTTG = 3.21
• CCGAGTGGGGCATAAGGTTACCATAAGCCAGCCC = 1.86

====

- System: VDR homodimer (NR concentration 270 nM)
- test-summary: PBM binding z-score (relative to random genomic background probes); higher = stronger binding; sequences stand for … in GC…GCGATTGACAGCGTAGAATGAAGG
In this section, each of the sequences is paired with its reported PBM binding z-score.
observable: PBM binding z-score

* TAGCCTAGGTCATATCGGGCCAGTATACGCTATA | 0.939
* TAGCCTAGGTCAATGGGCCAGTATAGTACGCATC | 0.391
* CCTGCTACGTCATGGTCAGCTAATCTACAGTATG | -0.512
* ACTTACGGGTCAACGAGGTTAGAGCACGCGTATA | 2.6
* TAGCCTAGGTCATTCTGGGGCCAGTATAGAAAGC | 1.11
* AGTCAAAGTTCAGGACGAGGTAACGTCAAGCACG | 2.33
* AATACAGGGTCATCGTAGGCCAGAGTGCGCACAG | 3.2
* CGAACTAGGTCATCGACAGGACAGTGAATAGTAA | 1.39
* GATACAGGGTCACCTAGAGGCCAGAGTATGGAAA | 1.97
* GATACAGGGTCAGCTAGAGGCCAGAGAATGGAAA | 0.71
* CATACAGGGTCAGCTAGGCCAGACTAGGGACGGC | 1.2
* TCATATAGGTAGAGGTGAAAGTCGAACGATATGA | 0.0889

====

- Test system: PPARg DBDmut IVT, anti-PPARg (DBD mutation: PPARg1 K132A/R137A, NR concentration 270 nM)
- test-summary: PBM binding z-score (relative to random genomic background probes); higher = stronger binding; sequences stand for … in GC…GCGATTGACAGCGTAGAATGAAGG
observable: PBM binding z-score

* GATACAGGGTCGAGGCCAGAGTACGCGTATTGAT | -0.92
* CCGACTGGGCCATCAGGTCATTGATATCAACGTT | -0.437
* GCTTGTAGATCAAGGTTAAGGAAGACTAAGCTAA | 0.338
* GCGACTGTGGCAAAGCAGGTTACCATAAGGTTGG | -1.16
* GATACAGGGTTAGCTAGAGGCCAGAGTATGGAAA | -1.22
* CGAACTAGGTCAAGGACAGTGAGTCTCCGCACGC | 1.15
* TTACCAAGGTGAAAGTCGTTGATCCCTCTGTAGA | 0.266
* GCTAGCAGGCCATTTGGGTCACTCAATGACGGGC | -1.12
* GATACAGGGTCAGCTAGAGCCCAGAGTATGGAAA | -0.697
* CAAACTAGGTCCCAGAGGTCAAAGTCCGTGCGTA | 0.477
* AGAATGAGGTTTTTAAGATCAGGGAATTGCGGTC | -0.0253
* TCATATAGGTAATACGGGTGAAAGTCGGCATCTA | 0.874
* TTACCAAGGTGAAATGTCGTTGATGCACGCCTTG | 0.465
* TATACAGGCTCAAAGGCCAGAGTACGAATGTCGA | 0.281
* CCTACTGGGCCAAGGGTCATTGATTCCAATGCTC | -0.667
* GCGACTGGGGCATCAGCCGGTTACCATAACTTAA | -1.34
* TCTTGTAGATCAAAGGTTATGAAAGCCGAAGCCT | 0.452
* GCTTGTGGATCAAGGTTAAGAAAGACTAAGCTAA | 0.0112
* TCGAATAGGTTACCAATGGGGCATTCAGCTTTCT | -0.411
* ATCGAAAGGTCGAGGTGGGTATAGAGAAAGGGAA | 1.16
* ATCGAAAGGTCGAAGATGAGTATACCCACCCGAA | 0.471
* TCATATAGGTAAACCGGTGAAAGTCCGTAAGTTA | 0.416
* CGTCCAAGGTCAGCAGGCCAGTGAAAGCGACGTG | -0.403
* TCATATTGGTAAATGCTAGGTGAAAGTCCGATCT | 1.6
* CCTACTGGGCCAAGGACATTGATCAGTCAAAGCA | -0.839
* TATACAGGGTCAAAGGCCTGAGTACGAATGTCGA | 3.06
* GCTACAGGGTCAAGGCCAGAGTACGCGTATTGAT | 0.11
* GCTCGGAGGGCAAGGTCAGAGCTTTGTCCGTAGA | -1.43
* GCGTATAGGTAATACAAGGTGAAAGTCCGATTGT | -0.802
* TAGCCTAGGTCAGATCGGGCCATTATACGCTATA | -0.774
* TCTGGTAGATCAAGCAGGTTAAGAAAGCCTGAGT | -0.683
* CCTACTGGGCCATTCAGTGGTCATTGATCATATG | -0.875
* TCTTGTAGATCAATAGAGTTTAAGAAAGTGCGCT | 0.852
* CCTACTGGGCCAAAGGTTATTGATTCCAATGCTC | -0.287
* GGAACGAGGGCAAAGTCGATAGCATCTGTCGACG | 0.0307
* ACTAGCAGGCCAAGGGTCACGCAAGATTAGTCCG | -0.153
* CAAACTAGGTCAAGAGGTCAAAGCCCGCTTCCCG | 2.45
* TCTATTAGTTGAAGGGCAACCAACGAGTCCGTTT | 1.16
* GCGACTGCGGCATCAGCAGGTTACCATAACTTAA | -0.596
* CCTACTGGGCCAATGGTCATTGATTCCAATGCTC | -0.523
* ACAGACAGGGGATGAAGGTAACTCAGGCTATCAT | 0.962
* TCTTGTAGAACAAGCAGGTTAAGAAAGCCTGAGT | -0.0834
* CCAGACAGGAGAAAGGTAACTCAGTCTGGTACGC | -0.621
* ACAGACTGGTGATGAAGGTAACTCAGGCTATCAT | -0.143
* CCTGCTAGGTCATGGTCAGCAAATCTACAGTATG | -0.183
* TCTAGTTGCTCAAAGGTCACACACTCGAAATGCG | 1.19
* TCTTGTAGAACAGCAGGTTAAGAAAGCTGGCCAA | -0.593
* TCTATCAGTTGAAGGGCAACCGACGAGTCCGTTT | 0.0205
* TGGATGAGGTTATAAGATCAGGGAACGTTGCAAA | 0.341
* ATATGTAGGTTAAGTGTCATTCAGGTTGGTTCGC | 2.12
* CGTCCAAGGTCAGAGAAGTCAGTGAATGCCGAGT | -0.903

The values you see were collected from the supplement of paper PMC6555819.
